Target: Nuclear receptor subfamily 1 group D member 1 (Homo sapiens)
Assay: modulators of Rev-erb alpha DNA binding, primary screen, biochemical, FITC-DNA, fluorescence polarization, uHTS (AID 1259318);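 note: 0% = DMSO wells with 35 nM protein and 100% = DMSO wells with 750 nM protein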
Conditions: Rev-erbα–FITC-DNA binding, 90 min, at 10 µM
The campaign covered roughly 370,000 compounds. About 3,000 (0.81%) were called active.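 Rule for the calls: active = activity above about 14% (limit read from the data; passing the limit was not always enough); inactive = the rest.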 Many of the other results were omitted from the sample, so actives are more common in it than they were.
Form entry, call: pick from active, inactive

For this compound, state the assay outcome: "O=C1CC2(CCCC2)Oc2ccc(Cl)cc21"
inactive

For this compound, state the assay outcome: "Cc1c(-c2ccccc2)nc(N)c(C#N)c1-c1cccs1"
active

For this compound, state the assay outcome: "O=C1Cc2ccccc2Sc2ccc(Cl)cc21"
active

For this compound, state the assay outcome: "CCOC(=O)c1sc(=NC(=O)/C=C/c2cccs2)n(C)c1C"
inactive

For this compound, state the assay outcome: "COc1cccc(-c2cc(CNC(=O)[C@@H](Cc3ccccc3)NC(=O)[C@H]3O[C@@H](n4cnc(C(N)=O)n4)[C@H](O)[C@@H]3O)no2)c1"
inactive

For this compound, state the assay outcome: CCOC(=O)C1=CN(Cc2ccc(Br)cc2)S(=O)(=O)N(C)C1C (stereo unspecified)
inactive

For this compound, state the assay outcome: "O=C(Nc1cc(S(=O)(=O)N2CCOCC2)ccc1OCC(F)(F)F)c1ccc(N2CCCC2=O)cc1"
inactive

====

Target: Nuclear receptor subfamily 1 group D member 1 (Homo sapiens)
Test: modulators of Rev-erb alpha DNA binding, primary screen, biochemical, FITC-DNA, fluorescence polarization, uHTS (AID 1259318);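 note: 0% = DMSO wells with 35 nM protein and 100% = DMSO wells with 750 nM protein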
Settings: Rev-erbα–FITC-DNA binding, 90 min, at 10 µM
Out of some 370,000 compounds screened, about 3,000 (0.81%) were called active.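 How the source made its calls: active means activity above about 14% (limit read from the data; passing the limit was not always enough); inactive means the rest.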 What follows is part of a selection rich in actives, with near analogues and random picks from the rest.
Form entry, call: pick from true (1) for active, false (0) for inactive

{"MOLECULE": "COC(=O)c1cccc(Cn2ccc3ccc(-c4ccc5ccn(C(=O)C6CCCCC6)c5c4)cc32)c1", "CLASS_LABEL": "true (1)"}
{"MOLECULE": "COc1ccc(Cc2nnc(NC(=O)c3ccc(OC)cc3OC)s2)cc1", "CLASS_LABEL": "true (1)"}
{"MOLECULE": "CCOc1cccc(C(=O)Nc2nnc(-c3cccs3)s2)c1", "CLASS_LABEL": "true (1)"}
{"MOLECULE": "COc1ccc(Cl)cc1-n1c(C)cc(C(=O)OCC(=O)N2CC(=O)Nc3ccccc32)c1C", "CLASS_LABEL": "false (0)"}
{"MOLECULE": "COC(=O)c1sc(NC(=O)c2ccc(OC)cc2OC)nc1C", "CLASS_LABEL": "true (1)"}
{"MOLECULE": "COc1ccc(N(CC(=O)Nc2cccc3ccccc23)S(C)(=O)=O)c(OC)c1", "CLASS_LABEL": "false (0)"}
{"MOLECULE": "COC(=O)c1cccc(Cn2ccc3ccc(-c4ccc5ccn(C(=O)c6ccccc6C)c5c4)cc32)c1", "CLASS_LABEL": "true (1)"}
{"MOLECULE": "CCOc1ccc(NC(=O)CSc2ncnc3c2sc2ccccc23)cc1", "CLASS_LABEL": "true (1)"}

For this molecule, state the assay outcome: "COc1ccc(-c2c(C#Cc3ccsc3)c3cc(-c4ccc(CN5CCOCC5)cc4)ccc3n2C)cc1"
false (0)

For this molecule, state the assay outcome: "c1ccc2c(c1)nnn2-c1ccncc1"
false (0)

====

Molecular target: Nuclear receptor subfamily 1 group D member 1 (Homo sapiens) (UniProt P20393)
Sequence (P20393 whole entry, looked up): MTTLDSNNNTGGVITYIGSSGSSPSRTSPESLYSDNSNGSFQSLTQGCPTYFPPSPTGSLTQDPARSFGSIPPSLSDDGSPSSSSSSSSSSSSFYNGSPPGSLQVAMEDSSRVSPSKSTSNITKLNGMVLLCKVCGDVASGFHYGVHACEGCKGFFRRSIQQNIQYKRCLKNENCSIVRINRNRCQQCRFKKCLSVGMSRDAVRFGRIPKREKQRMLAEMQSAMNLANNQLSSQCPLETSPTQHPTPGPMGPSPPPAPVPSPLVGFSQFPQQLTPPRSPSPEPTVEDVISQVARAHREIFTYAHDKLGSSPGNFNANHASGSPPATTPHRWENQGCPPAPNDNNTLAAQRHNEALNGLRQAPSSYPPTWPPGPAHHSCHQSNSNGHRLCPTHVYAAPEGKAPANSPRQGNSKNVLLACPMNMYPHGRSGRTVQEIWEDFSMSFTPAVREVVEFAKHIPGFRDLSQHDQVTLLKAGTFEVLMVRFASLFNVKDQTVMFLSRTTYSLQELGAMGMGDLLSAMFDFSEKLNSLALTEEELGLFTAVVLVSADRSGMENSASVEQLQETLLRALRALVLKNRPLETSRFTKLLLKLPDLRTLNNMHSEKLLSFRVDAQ
Test: modulators of Rev-erb alpha DNA binding, primary screen, biochemical, FITC-DNA, fluorescence polarization, uHTS (AID 1259318);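 note: 0% = DMSO wells with 35 nM protein and 100% = DMSO wells with 750 nM protein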
Conditions: Rev-erbα–FITC-DNA binding, 90 min, at 10 µM
Out of some 370,000 compounds screened, about 3,000 (0.81%) were called active.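 The calls were made as follows: active = activity above about 14% (limit read from the data; passing the limit was not always enough); inactive = the rest.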 The list comes from a sample in which actives are over-represented; it also holds close analogues and randomly drawn compounds.
Form entry, call: pick from active, inactive

Would you please look over these solved cases?
{"COMPOUND": "Cc1nc2cc(NC(=O)CSc3nc4c(C)cccc4cc3C#N)ccc2s1", "CLASS_LABEL": "active"}
{"COMPOUND": "Cc1ccc(C)c2c1cc(C)c1nnc(SCC(=O)Nc3cccc(C(=O)O)c3)n12", "CLASS_LABEL": "inactive"}
{"COMPOUND": "COC(=O)CSc1nc2c(c(C3CC=CCC3)c1C#N)CCC2 (stereo not given)", "CLASS_LABEL": "inactive"}
{"COMPOUND": "CN(Cc1nc(-c2cnccn2)no1)Cc1n[nH]c2c1CCCCC2", "CLASS_LABEL": "inactive"}

For this compound, state the assay outcome: "CC1(C)NC(=O)N(CC(=O)Nc2cc(C(F)(F)F)cc(C(F)(F)F)c2)C1=O"
inactive

====

Molecular target: Nuclear receptor subfamily 1 group D member 1 (Homo sapiens)
Experiment: modulators of Rev-erb alpha DNA binding, primary screen, biochemical, FITC-DNA, fluorescence polarization, uHTS (AID 1259318);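 note: 0% = DMSO wells with 35 nM protein and 100% = DMSO wells with 750 nM protein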
Conditions: Rev-erbα–FITC-DNA binding, 90 min, at 10 µM, stronger effect = higher value
Out of some 370,000 compounds screened, about 3,000 (0.81%) were called active. Many of the other results were omitted from the sample, so actives are more common in it than they were.
A collection of compounds and their measured activity
Give the number; % is assumed, so skip it.

{"COMPOUND": "Cc1ccccc1N1CCN(S(=O)(=O)c2ccc3ccccc3c2)CC1", "OUTPUT_UNIT": "%", "activity": 3.07}

# query: activity of entry "O=C(COC(=O)c1cccc(Cl)c1)NC1CCCCCCC1"
-7.98

# query: activity of entry CC1(Oc2ccccc2-c2ccno2)CCN(Cc2ccc(-c3ccccc3)o2)C1 (stereo not given)
-3.17

# query: activity of entry "COC(=O)Cn1c(=NC(=O)c2cc(OC)c(OC)c(OC)c2)sc2cc(OC)ccc21"
23.3

# query: activity of entry "CC(=O)c1ccc(N2CCN(S(=O)(=O)c3ccc4c(c3)CC(=O)N4C)CC2)cc1"
1.85

# query: activity of entry "CCOc1ccc2cc(C#N)c(SCC(=O)OC)nc2c1"
116

====

Biological target: Nuclear receptor subfamily 1 group D member 1 (Homo sapiens)
Test: modulators of Rev-erb alpha DNA binding, primary screen, biochemical, FITC-DNA, fluorescence polarization, uHTS (AID 1259318);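 note: 0% = DMSO wells with 35 nM protein and 100% = DMSO wells with 750 nM protein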
Conditions: Rev-erbα–FITC-DNA binding, 90 min, at 10 µM, stronger effect = higher value
The whole screen tested about 370,000 compounds, of which about 3,000 (0.81%) were called active. Shown is part of a subset that was picked to be rich in actives.
A collection of compounds and their measured activity
Give the number; % is assumed, so skip it.

{"COMPOUND": "CSc1ncnc2c1ncn2CC(=O)C1CCC2C3CCC4=CC(=O)CCC4(C)C3CCC12C (stereo unspecified)", "activity (%)": -3.58}
{"COMPOUND": "CCc1ccc2c(c1)cc(CN(C(=S)Nc1ccccc1Cl)C1CC1)c1nnnn12", "activity (%)": 18.7}
{"COMPOUND": "COc1ccc(-c2csc3ncnc(N4CCN(S(=O)(=O)c5ccccc5C#N)CC4)c23)cc1", "activity (%)": 28.3}
{"COMPOUND": "COc1ccc(-c2nn(C)c(=O)c3ccccc23)cc1CNC(=O)C1CCCCC1", "activity (%)": -3.48}
{"COMPOUND": "O=C(COC(=O)Cn1cnc2ccccc21)Nc1cccc2c1C(=O)c1ccccc1C2=O", "activity (%)": -19.3}

In the following, a different compound is considered.
# query: activity of entry "O=C(COC(=O)c1ccccc1SCC(=O)NC1CCCCC1)NC1CCCCC1"
70.3

====

Molecular target: Nuclear receptor subfamily 1 group D member 1 (Homo sapiens)
Assay: modulators of Rev-erb alpha DNA binding, primary screen, biochemical, FITC-DNA, fluorescence polarization, uHTS (AID 1259318);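 note: 0% = DMSO wells with 35 nM protein and 100% = DMSO wells with 750 nM protein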
Details: Rev-erbα–FITC-DNA binding, 90 min, at 10 µM, stronger effect = higher value
About 3,000 (0.81%) of roughly 370,000 compounds were called active. This is one part of a sample in which actives are shown more often than they occur.
A collection of molecules and their measured activity
Give the number; % is assumed, so skip it.

Worked examples follow.
{"COMPOUND_STRUCTURE": "CCOC(=O)C1CCN(C(=O)C(C)(C)NC(=O)Nc2ccccc2Cl)CC1", "TARGET_OR_SYSTEM": "Nuclear receptor subfamily 1 group D member 1 (Homo sapiens)", "activity (%)": -6.49}
{"COMPOUND_STRUCTURE": "O=C(NCc1cccnc1)c1ccc(CS(=O)(=O)c2ccc(Br)cc2)o1", "TARGET_OR_SYSTEM": "Nuclear receptor subfamily 1 group D member 1 (Homo sapiens)", "activity (%)": -2.47}

# query: activity of entry "O=C1NS(=O)(=O)c2ccccc21"
4.73
